Molecular target: F508delCFTR (Homo sapiens, UniProt P13569, DEL508-508)
Construct: expressed in transfected cells; host or cells: CFBE4lo-F508delCFTR-HRP cells (human lung derived epithelial cell line, doxycycline-inducible)
Sequence (P13569 with tags, fused parts or gaps DEL508-508): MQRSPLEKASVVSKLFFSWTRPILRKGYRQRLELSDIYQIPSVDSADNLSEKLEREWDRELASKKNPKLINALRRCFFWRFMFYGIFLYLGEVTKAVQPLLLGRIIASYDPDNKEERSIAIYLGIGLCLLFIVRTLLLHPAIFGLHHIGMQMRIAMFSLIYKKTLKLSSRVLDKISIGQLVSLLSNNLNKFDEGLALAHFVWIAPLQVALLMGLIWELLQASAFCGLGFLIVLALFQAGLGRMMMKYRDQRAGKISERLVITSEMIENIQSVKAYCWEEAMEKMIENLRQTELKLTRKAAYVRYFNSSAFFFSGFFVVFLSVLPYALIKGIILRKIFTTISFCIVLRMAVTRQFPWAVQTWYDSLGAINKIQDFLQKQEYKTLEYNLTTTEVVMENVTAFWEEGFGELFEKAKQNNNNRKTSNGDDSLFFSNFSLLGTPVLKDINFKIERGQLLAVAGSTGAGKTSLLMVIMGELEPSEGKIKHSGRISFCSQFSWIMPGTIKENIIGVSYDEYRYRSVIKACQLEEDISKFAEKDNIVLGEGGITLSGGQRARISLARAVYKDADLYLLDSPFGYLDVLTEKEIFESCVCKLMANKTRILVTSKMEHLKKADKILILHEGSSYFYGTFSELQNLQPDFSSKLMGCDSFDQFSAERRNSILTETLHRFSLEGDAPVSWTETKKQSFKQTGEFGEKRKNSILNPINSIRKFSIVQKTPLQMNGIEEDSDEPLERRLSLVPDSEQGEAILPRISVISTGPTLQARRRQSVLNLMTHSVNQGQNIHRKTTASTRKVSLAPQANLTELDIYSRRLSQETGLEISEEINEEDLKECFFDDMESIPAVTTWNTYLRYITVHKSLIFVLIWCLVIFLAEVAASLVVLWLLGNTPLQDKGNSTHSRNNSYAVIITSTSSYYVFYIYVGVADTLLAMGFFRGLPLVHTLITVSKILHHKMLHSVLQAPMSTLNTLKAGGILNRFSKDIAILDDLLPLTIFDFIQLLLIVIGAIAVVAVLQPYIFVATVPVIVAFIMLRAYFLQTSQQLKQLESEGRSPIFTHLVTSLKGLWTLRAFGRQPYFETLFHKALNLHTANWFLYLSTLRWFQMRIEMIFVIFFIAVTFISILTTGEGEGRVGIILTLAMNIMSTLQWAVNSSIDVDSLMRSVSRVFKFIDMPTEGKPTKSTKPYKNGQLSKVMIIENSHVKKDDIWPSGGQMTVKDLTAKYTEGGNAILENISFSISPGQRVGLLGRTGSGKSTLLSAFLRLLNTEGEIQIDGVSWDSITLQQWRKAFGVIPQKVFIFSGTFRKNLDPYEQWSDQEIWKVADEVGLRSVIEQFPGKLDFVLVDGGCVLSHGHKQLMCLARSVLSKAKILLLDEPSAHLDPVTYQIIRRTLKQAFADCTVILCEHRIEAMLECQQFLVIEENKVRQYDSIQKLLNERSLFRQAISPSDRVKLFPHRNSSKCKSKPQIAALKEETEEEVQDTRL
Assay: Cell Surface Expression-Horse Radish Peroxidase (CSE-HRP) Assay
Assay type: cell-based
Conditions: with co-corrector 2 μM 3-[(2R,4R)-4-({[1-(2,2-difluoro-1,3-benzodioxol-5-yl)cyclopropyl]carbonyl}amino)-7-methoxy-3,4-dihydro-2H-chromen-2-yl]benzoic acid; CFBE4lo-F508delCFTR-HRP cells, 18-24 hours at 33° C.; read-out: EC50 (with co-corrector)
From the text: Cell Surface Expression-Horse Radish Peroxidase (CSE-HRP) Assay […] The maximum % activity achieved for the test compound either without or with a co-corrector at any tested concentration is presented in Table 1 along with the respective EC50's calculated using the following general sigmoidal curve with variable Hill slope equation (described as Model 42 in the Accelrys® Assay Explorer v3.3 software): y=(a−d)/(1+(x/c)^b)+d […]
Kindly supply the reported EC50 values for the records listed here.

Note to self: EC50 recorded for COc1ccc(Br)c2c1C(C(=O)NS(=O)(=O)c1cccc3cccnc13)CCO2 (stereo not shown) was < 3 µM

Sample O=C(NS(=O)(=O)c1cccc2ccccc12)C1OCCc2ccc(OC(F)(F)F)cc21 (stereo not shown) ; EC50 observed: 3 to 10 µM

In plain terms, Cc1ccccc1S(=O)(=O)NC(=O)C1CCOc2ccccc21 (stereo not shown) has a documented EC50 of 3 to 10 µM

EC50 reported for this molecule COc1ccc(C2CCC2)c2c1[C@@H](C(=O)NS(=O)(=O)c1cccc3cnn(C)c13)CO2 (single isomer, unassigned) : < 3 µM

Entry O=C(NS(=O)(=O)c1cccc2ccccc12)C1COc2c1cccc2C(F)(F)F (stereo not shown) , EC50 reported as 3 to 10 µM

Item: "COc1ccc(C2CCC2)c2c1[C@H](C(=O)NS(=O)(=O)c1cccc3[nH]ccc13)CCO2" | EC50: < 3 µM

Recorded result, COc1ccc(C2CCC2)c2c1C(C(=O)NS(=O)(=O)c1cccc3ncccc13)CCO2 (stereo not shown) , EC50: < 3 µM

Field EC50 (entry COc1ccc(C(F)(F)F)c2c1C(C(=O)NS(=O)(=O)c1cccc3ccccc13)CCO2 (stereo not shown) ) reads < 3 µM

Reported EC50 of "COc1ccc(C2CCC2)c2c1[C@@H](C(=O)NS(=O)(=O)c1cccc3c1CCCN3)CCO2" : 3 to 10 µM

Quick note, EC50 for "COc1ccc(C2CCC2)c2c1[C@H](C(=O)NS(=O)(=O)c1cccc3cnn(C)c13)CO2" landed at < 3 µM

###

Biological target: F508delCFTR (Homo sapiens, UniProt P13569, DEL508-508)
Construct: expressed in transfected cells; host or cells: CFBE4lo-F508delCFTR-HRP cells (human lung derived epithelial cell line, doxycycline-inducible)
Test: Cell Surface Expression-Horse Radish Peroxidase (CSE-HRP) Assay
Type: cell-based
Conditions: with co-corrector 2 μM 3-[(2R,4R)-4-({[1-(2,2-difluoro-1,3-benzodioxol-5-yl)cyclopropyl]carbonyl}amino)-7-methoxy-3,4-dihydro-2H-chromen-2-yl]benzoic acid; CFBE4lo-F508delCFTR-HRP cells, 18-24 hours at 33° C.; read-out: EC50 (with co-corrector)
pEC50: −log10 of the molar value.
For each record, write down the corresponding pEC50.

Entry C[C@]1(C(=O)NS(=O)(=O)c2cccc3ccccc23)COc2cc3c(cc21)OC(F)(F)O3 [Example 33] ; pEC50 = ≤ 5.00

Record COc1ccc(C2CCC2)c2c1C(C(=O)NS(=O)(=O)c1cccc3c1CCCN3)CCO2 (stereo not shown) [Example 85] . Reported pEC50: > 5.52

So, COc1ccc(Br)c2c1C(C(=O)NS(=O)(=O)c1cccc3ncccc13)CC(C)(C)O2 (stereo not shown) [Example 46] ? Its pEC50 was > 5.52

Recorded pEC50 (molecule Cc1cc2c(c(C)c1C(=O)c1ccccc1)C(C(=O)NS(=O)(=O)c1cccc3ccccc13)CCO2 (stereo not shown) [Example 5] ): > 5.52

What the record says about O=C(NS(=O)(=O)c1cccc2ccccc12)C1(c2ccccc2)COc2ccccc21 (stereo not shown) [Example 6] : pEC50 is > 5.52

Measured pEC50 of COc1cccc2c1OCC2C(=O)NS(=O)(=O)c1cccc2ccccc12 (stereo not shown) [Example 25] : 5.00 to 5.52

pEC50 recorded for this molecule, COc1ccc(C2CCC2)c2c1[C@@H](C(=O)NS(=O)(=O)c1cccc3ccccc13)CCO2 [Example 55] , is 5.00 to 5.52

get_value(item= COc1ccc(C2CCC2)c2c1C(C(=O)NS(=O)(=O)c1cccc3ccccc13)OCC2 (stereo not shown) [Example 79] , readout=pEC50) returns > 5.52

Reported pEC50 ( O=C(NS(=O)(=O)c1cccc2ccccc12)C1CCOc2ccccc21 (stereo not shown) [Example 24] ) = 5.00 to 5.52

pEC50 in this record for COc1ccc(C2CCC2)c2c1OCC[C@@H]2C(=O)NS(=O)(=O)c1cccc2ncccc12 (single isomer, unassigned) [Example 107] : 5.00 to 5.52

Quick note, pEC50 for COc1c(Br)cc(Br)c2c1C(C(=O)NS(=O)(=O)c1cccc3ccccc13)CCO2 (stereo not shown) [Example 12] landed at 5.00 to 5.52

// sample COc1ccc(C(F)(F)F)c2c1[C@H](C(=O)NS(=O)(=O)c1cccc3ccccc13)CCO2 [Example 58] , its pEC50 was > 5.52

Query COc1ccc(C2CCC2)c2c1[C@@H](C(=O)NS(=O)(=O)c1cccc3c1NCCC3)CO2 (single isomer, unassigned) [Example 98] yields pEC50 of 5.00 to 5.52

The molecule listed as COc1ccc(C2CCC2)c2c1[C@H](C(=O)NS(=O)(=O)c1cccc3ncccc13)CCO2 [Example 60] shows pEC50 equal to > 5.52

So, COc1cccc2c1C(C(=O)NS(=O)(=O)c1cccc3ccccc13)CC1(CCCCC1)O2 (stereo not shown) [Example 38] ? Its pEC50 was > 5.52

Looking up COc1ccc(C(F)(F)F)c2c1[C@@H](C(=O)NS(=O)(=O)c1cccc3ccccc13)CCO2 [Example 57] , I see its pEC50 listed as > 5.52

###

Target: F508delCFTR (Homo sapiens, UniProt P13569, DEL508-508)
Construct: expressed in transfected cells; host or cells: CFBE4lo-F508delCFTR-HRP cells (human lung derived epithelial cell line, doxycycline-inducible)
Assay: Cell Surface Expression-Horse Radish Peroxidase (CSE-HRP) Assay
Format: cell-based
Details: with co-corrector 2 μM 3-[(2R,4R)-4-({[1-(2,2-difluoro-1,3-benzodioxol-5-yl)cyclopropyl]carbonyl}amino)-7-methoxy-3,4-dihydro-2H-chromen-2-yl]benzoic acid; CFBE4lo-F508delCFTR-HRP cells, 18-24 hours at 33° C.; read-out: EC50 (with co-corrector)
pEC50: −log10 of the molar value.
Experimental endpoint: pEC50

Recorded result, COc1ccc(Br)c2c1C(C(=O)NS(=O)(=O)c1cccc3ccccc13)OCC2 (centres unmarked) [Example 78] , pEC50: > 5.52

According to the records, this compound COc1cccc2c1C(C(=O)NS(=O)(=O)c1cccc3ncccc13)CC(C)(C)O2 (centres unmarked) [Example 48] displays pEC50 of 5.00 to 5.52

# pEC50 of COc1ccc(Cl)c2c1[C@H](C(=O)NS(=O)(=O)c1cccc3ccccc13)CO2 (single isomer, unassigned) [Example 68] = > 5.52

The measured pEC50 associated with COc1ccc(Cl)c2c1C(C(=O)NS(=O)(=O)c1cccc3ccccc13)CO2 (centres unmarked) [Example 63] reads > 5.52

pEC50 measured on COc1ccc(Br)c2c1[C@H](C(=O)NS(=O)(=O)c1cccc3ccccc13)CO2 (single isomer, unassigned) [Example 74] = > 5.52

Lab book: pEC50 of CCC1(C(=O)NS(=O)(=O)c2cccc3ccccc23)COc2ccccc21 (centres unmarked) [Example 23] noted as > 5.52

The recorded pEC50 for Cc1ccccc1S(=O)(=O)NC(=O)C1Cc2ccccc2O1 (centres unmarked) [Example 17] is ≤ 5.00

pEC50 reading for O=C(NS(=O)(=O)c1cccc2ccccc12)C1COc2c(Cl)cccc21 (centres unmarked) [Example 43] : 5.00 to 5.52

###

Biological target: F508delCFTR (Homo sapiens, UniProt P13569, DEL508-508)
Construct: expressed in transfected cells; host or cells: CFBE4lo-F508delCFTR-HRP cells (human lung derived epithelial cell line, doxycycline-inducible)
Assay: Cell Surface Expression-Horse Radish Peroxidase (CSE-HRP) Assay
Assay type: cell-based
Details: test compound without co-corrector; CFBE4lo-F508delCFTR-HRP cells, 18-24 hours at 33° C., HRP luminescence readout; read-out: EC50 (without co-corrector)
Field: EC50. Provide a value for each of the molecules that follow.

// recorded EC50 for COc1ccc(Br)c2c1C(C(=O)NS(=O)(=O)c1cccc3ccccc13)CC1(CCCCC1)O2 (stereo not shown) : < 3 µM

Per the record, Cc1ccccc1S(=O)(=O)NC(=O)C1Cc2ccccc2O1 (stereo not shown) has EC50 of ≥ 10 µM

// "COc1ccc(C2CCC2)c2c1[C@@H](C(=O)NS(=O)(=O)c1cccc3ncccc13)CCO2" : EC50 value = 3 to 10 µM

Quick note, EC50 for CCC1(C(=O)NS(=O)(=O)c2cccc3ccccc23)COc2c(OC)cccc21 (stereo not shown) landed at 3 to 10 µM

Record "COc1ccc(Br)c2c1[C@H](C(=O)NS(=O)(=O)c1cccc3ccccc13)CCO2" . Reported EC50: < 3 µM

Entry COc1ccc(Br)c2c1[C@@H](C(=O)NS(=O)(=O)c1cccc3ccccc13)CO2 (single isomer, unassigned) ; EC50 = 3 to 10 µM

// recorded EC50 for COc1ccc(C2CCC2)c2c1C(C(=O)NS(=O)(=O)c1cccc3c1NCCC3)CO2 (stereo not shown) : 3 to 10 µM

Sure, the documented EC50 for COc1ccc(C2CCC2)c2c1C(C(=O)NS(=O)(=O)c1cccn3nccc13)CO2 (stereo not shown) is 3 to 10 µM

Field EC50 (entry COc1ccc2c(c1)C(C(=O)NS(=O)(=O)c1cccc3ccccc13)(c1ccccc1)CC(C)(C)O2 (stereo not shown) ) reads < 3 µM

Per the record, COc1ccc(C2CCC2)c2c1C(C(=O)NS(=O)(=O)c1cccc3[nH]ccc13)CCO2 (stereo not shown) has EC50 of < 3 µM

Hello, the source for this data is patent US10428017B2, in case you need it.
